- TGT: T1, CRF2R
- T1 sequence (Q13324 whole entry, species assumed, looked up): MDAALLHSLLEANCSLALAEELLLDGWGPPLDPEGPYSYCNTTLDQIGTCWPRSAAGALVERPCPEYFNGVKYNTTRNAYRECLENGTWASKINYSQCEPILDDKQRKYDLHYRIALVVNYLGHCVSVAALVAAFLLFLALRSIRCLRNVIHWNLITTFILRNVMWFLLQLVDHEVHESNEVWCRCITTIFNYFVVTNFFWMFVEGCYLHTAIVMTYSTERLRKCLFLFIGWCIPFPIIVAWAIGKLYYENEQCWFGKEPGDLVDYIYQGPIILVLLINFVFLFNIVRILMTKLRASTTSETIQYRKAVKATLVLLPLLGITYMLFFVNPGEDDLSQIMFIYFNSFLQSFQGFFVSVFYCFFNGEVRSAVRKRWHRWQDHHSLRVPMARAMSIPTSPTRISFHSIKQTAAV
- PROCEDURE_DETAILS: cell-based or functional assay
# reported CRF2R EC50; entries follow
ASSAY_READOUT: CRF2R EC50 (nM)

• ZGPPISIDLPFGLLRKMIEIEKQEKEKQQAANNRLLLDTI (C-terminal amide) [SEQ ID NO 68] = 38.5
• ZGPPISIDLPIHLLRKMIEIEKQEKEKQQAANNRLLLDTI (C-terminal amide) [SEQ ID NO 77] = 43.4
• ZGPPISIDLPIDLLRKMIEIEKQEKEKQQAANNRLLLDTI (C-terminal amide) [SEQ ID NO 28] = 100
